Entries and their measured growth follow.
# System: SK-OV-3 ovarian
# protocolText: NCI-60 one-dose screen, 48 h (100 = growth as untreated, 0 = no growth, -100 = all killed)
# cond: 10 µM unless noted
Compounds without any hit were thinned out: in the full panel of roughly 83,000, 20% have a hit.
Give the quantity in %, number only.

Study these solved cases before continuing.
* COc1cc2cc(Oc3cccc(NC(=O)Nc4cc(C(F)(F)F)cc(C(F)(F)F)c4)c3)c(C)nc2cc1OC | -1.05
* CCC(=O)Oc1ccc(/C(=C(\C)c2ccccc2)c2ccc(OCCN3CCCCC3)cc2)cc1 | 75.5
* COc1cccc(-c2nc3occn3c2-c2ccnc(NCCNS(=O)(=O)c3cccc4ccccc34)n2)c1 | 83.5
* C=C1C(=O)O[C@H]2[C@H]1CC/C(COC(=O)NCc1c[nH]c3ccc(Cl)cc13)=C\CC[C@@]1(C)O[C@@H]21 | 90.5
* Cc1ccc(-c2nc3ccccn3c2/C=C2/C(=O)Nc3cc(Cl)ccc32)cc1 | 94.4

QUERY: Report growth, nothing else, for this compound: Cn1c(N2NC(=O)C(N=Nc3ccc(S(N)(=O)=O)cc3)C2=O)nc(-c2ccco2)c(C#N)c1=O (configuration not stated)
RESULT: 102

QUERY: Report growth, nothing else, for this compound: O=C(c1nc2ccccc2[nH]1)C1C(c2ccc(Br)cc2)C2CC3CCCC[C@H]3N2[C@@]12C(=O)Nc1cc(Cl)ccc12 (some centres not stated)
RESULT: 67.6

---

# System: SK-MEL-28 melanoma
# protocolText: NCI-60 one-dose screen, 48 h (100 = growth as untreated, 0 = no growth, -100 = all killed)
# cond: 10 µM unless noted
# Protocol: Growth inhibition of the SK-MEL-28 human tumor cell line is measured as a screen for anti-cancer activity. Cells are grown in 96 well plates and exposed to the test compound for 48 hours. Compounds are tested at a single concentration, which is 10^-5 M for most compounds. The reported endpoint is percent growth (GI% or GIPRCNT), where numbers from 0 - 100% represent growth inhibition, and numbers from -100% - 0 represent cell death. For example, a value of 40 represents 60% growth inhibition. […]
Compounds without any hit were thinned out: in the full panel of roughly 83,000, 20% have a hit. Calls of active or inactive are those of the source. Rule for the calls: active = growth percent below 10; inactive = the rest.
quantityMeasured: growth

QUERY: Report growth, nothing else, for this molecule: O=[N+]([O-])c1ccc(NC(=S)N/N=C/c2cc3ccccc3n3nnnc23)cc1
RESULT: 79% (inactive)

QUERY: Report growth, nothing else, for this molecule: CCOC(=O)CCN(CC(C)C)C(=S)Nc1ccccc1
RESULT: 106% (inactive)

QUERY: Report growth, nothing else, for this molecule: COc1cc2c(=O)n(CCN)c3c4cc5c(cc4ccc3c2cc1OC)OCO5
RESULT: -71.2% (active)

QUERY: Report growth, nothing else, for this molecule: Cc1cc2nc3c4ccc(Br)cc4n(CCN(C)C)c3nc2cc1C
RESULT: 42.4% (inactive)

---

# Tested on: OVCAR-4 ovarian
# protocolText: NCI-60 one-dose screen, 48 h
# cond: 10 µM unless noted
This is part of a sample that, as a whole, favours compounds with a hit. Of some 83,000 tested, about 20% had one in any assay. Active and inactive are the calls of the source. How the source made its calls: active means growth percent below 10; inactive means the rest.
Classes to choose from: active, inactive

Example results:
• CCN(CC)CCCC(C)Nc1cc(O)cc2cccnc12 (stereo unspecified) = inactive
• O=C(/C=C/c1ccc[nH]1)c1ccc(-n2ccc(C(F)(F)F)n2)c(F)c1 = inactive
• Cc1ccc(C(=O)/C(=C\c2ccc([N+](=O)[O-])cc2)S(=O)Cc2ccc(Cl)cc2)cc1 (stereo unspecified) = inactive
• N#C/C(=C\c1ccc([N+](=O)[O-])s1)c1nc2cc(Br)ccc2s1 = active
• COc1ccc(C(=O)Nc2cccc(C3CCc4c(cc(OC)c(OC)c4OC)O3)c2)cc1 (stereo unspecified) = inactive

QUERY: Status in this test for O=C1Nc2cc(-c3cccc([N+](=O)[O-])c3)ccc2/C1=C/c1ccc[nH]1 ?
RESULT: inactive

QUERY: Status in this test for O=C(Cc1ccc(/C=C/C(=O)c2ncc[nH]2)cc1)Nc1ccc(Cl)cc1 ?
RESULT: inactive

QUERY: Status in this test for COc1ccc(Cc2cnc(NC(=O)c3ccc4c(c3)OCCO4)s2)cc1 ?
RESULT: inactive

QUERY: Status in this test for CCOC(=O)[C@@H](C)C[C@H](Cc1ccccc1)NC(=O)c1csc([C@@H](C[C@H](C(C)C)N(C)C(=O)[C@@H](NC(=O)[C@H]2C[C@H](O[Si](C)(C)C(C)(C)C)CCN2C)C(C)C)OC(C)=O)n1 ?
RESULT: inactive

QUERY: Status in this test for N#Cc1c(NCc2ccccc2I)sc2c1CCCCC2 ?
RESULT: inactive

---

Entries and their measured growth follow.
# Tested on: HOP-62 NSCLC
# protocolText: NCI-60 one-dose screen, 48 h (100 = growth as untreated, 0 = no growth, -100 = all killed)
# cond: 10 µM unless noted
Compounds without any hit were thinned out: in the full panel of roughly 83,000, 20% have a hit.
Give the quantity in %, number only.

Study these solved cases before continuing.
- N#Cc1c(NC(=O)NCc2ccccc2)sc2c1CCCC2: 40.2
- O=C1/C=C/[C@@H](O)[C@@H]2C[C@@H](O)C[C@H]2/C=C/CCC[C@H](CCc2ccc3ncccc3c2)O1: 15.3
- Fc1ccc2c(-c3cncn3CCc3ccccc3)c[nH]c2c1: 87.4
- O=C(/C(=C/c1ccc([N+](=O)[O-])cc1)SCc1ccc(F)cc1)c1ccc(F)cc1: 93.6
- COc1cc2nc(-c3ccc(Cl)cc3)cc(OCCCN3CCCCC3)c2cc1OC: 54.7
- COc1cccc(-c2nc3occn3c2-c2ccnc(NCCNS(=O)(=O)c3ccc(C(F)(F)F)cc3)n2)c1: 119

QUERY: Report growth, nothing else, for this compound: O=C(Nc1ncc(Cc2cc(Cl)ccc2Cl)s1)c1cccs1
RESULT: 55.1

---

# System: EKVX NSCLC
# protocolText: NCI-60 one-dose screen, 48 h (100 = growth as untreated, 0 = no growth, -100 = all killed)
# cond: 10 µM unless noted
The panel holds about 83,000 compounds, 20% with a hit somewhere; the sample as a whole holds those more often.
Respond with met for growth values of 90% and above, not met for values below.

Example results:
- O=C1C=CC(=O)N1c1cccc(Cl)c1: met
- CCC(CC)NCC(C)(C)O: met
- Cn1cc(-c2csc(-c3c[nH]c4ccccc34)n2)c2ccnc(Cl)c21: not met

QUERY: Entry CCOC(=O)C1=C(C)NC(SCc2cc(=O)oc3ccc(F)cc23)=N[C@@H]1c1cccc2ccccc12 : is its growth no less than 90%?
RESULT: met

QUERY: Entry CC(C)(C)[Si](C)(C)OC1[C@@H](O[Si](C)(C)C(C)(C)C)[C@@H](CNC(=O)NC(=O)CCl)O[C@H]1n1cnc2c(NC(=O)Nc3ccccc3)ncnc21 (stereo partly specified) : is its growth no less than 90%?
RESULT: not met

QUERY: Entry N#CC(C(=O)/C(=N/NC(=O)c1ccccc1O)C(C#N)c1ccccc1)c1ccccc1 (stereo unspecified) : is its growth no less than 90%?
RESULT: not met

---

Entries and their measured growth follow.
# Tested on: HCT-116 colon
# protocolText: NCI-60 one-dose screen, 48 h (100 = growth as untreated, 0 = no growth, -100 = all killed)
# cond: 10 µM unless noted
This is part of a sample that, as a whole, favours compounds with a hit. Of some 83,000 tested, about 20% had one in any assay.
Give the quantity in %, number only.

• CCCCCC(=O)Oc1ccc(/C(=C(\C)c2ccccc2)c2ccc(OCCN3CCCCC3)cc2)cc1 = 56.6
• NC(=NCCCOc1ccc(F)cc1)Nc1ccc(I)cc1 = 58.7
• COc1ccc(OC)c(CCn2cncc2-c2c[nH]c3ccccc23)c1 = 77.7

Let us move to another entry and its growth.
QUERY: Report growth, nothing else, for this molecule: Brc1ccc(Nc2csc(-c3ccccn3)n2)cc1
RESULT: 88.8

---

# System: ACHN renal
# protocolText: NCI-60 one-dose screen, 48 h
# cond: 10 µM unless noted
This is part of a sample that, as a whole, favours compounds with a hit. Of some 83,000 tested, about 20% had one in any assay. The source made the active and inactive calls. How the source made its calls: active means growth percent below 10; inactive means the rest.
Classes to choose from: Yes for active, No for inactive

Example results:
- COc1ccc2[nH]c(=O)c(CN3CCN(c4nccc(-c5ccc(Cl)cc5)n4)CC3)cc2c1: No
- N#Cc1c(NC(=O)NCc2ccccc2)sc2c1CCCC2: No
- O=C(CSc1nc2ccccc2[nH]1)NCc1ccccc1: No

QUERY: Status in this test for Oc1cccc(CCc2ccc(Oc3cc(CCc4cccc(O)c4)cc(O)c3O)cc2)c1 ?
RESULT: No

QUERY: Status in this test for O=Cc1cc2ccccc2nc1Oc1ccc(C(F)(F)F)cc1 ?
RESULT: No

QUERY: Status in this test for O=C(Nc1ccc(Cl)cc1)c1cc(NCc2cc(O)ccc2O)ccc1O ?
RESULT: No

QUERY: Status in this test for Cc1c(C(=O)NCCC(=O)NO)sc2ncnc(Nc3ccc(F)c(Cl)c3)c12 ?
RESULT: No

QUERY: Status in this test for O=C(c1nc2ccccc2[nH]1)C1C(c2ccc(Br)cc2)C2CC3CCCC[C@H]3N2[C@@]12C(=O)Nc1cc(Cl)ccc12 (some centres undefined) ?
RESULT: No

This collection of values is drawn from PubChem BioAssay (NCI).
